Source listed as ChEMBL document CHEMBL4513216.

# cytotoxicity at 10 µM listing for each entry below
# EXPERIMENTAL_DETAILS: Toxicity liver stage against HepG2, at 10uM
# Format: cell-based
# Design: test concentration 10 uM, cell line HepG2-A16-CD81EGFP
# TEST_PARAMETERS: human, HepG2-A16-CD81EGFP cells; read-out: INHIBITION
# number only, unit % dropped from output

Example compounds with recorded cytotoxicity at 10 µM:
| COMPOUND | cytotoxicity at 10 µM (%) |
| --- | --- |
| CC(=O)CSc1nnc2n1N=CN(c1cccc(Cl)c1)C2 | 1.05 |
| CC1(C)CNC(=O)c2nc(CCN3CCC(C(N)=O)CC3)[nH]c2C1 | -1.35 |
| NC(=O)c1nc(CC(=O)Nc2cccc(C(F)(F)F)c2)no1 | 0.493 |
| Cc1cc(C)n(CC2CCCN2CC(=O)N(C)CCC#N)n1 (stereo unspecified) | -14.8 |
| CCn1ccc(-c2cc(C(=O)O)n3ncc(Br)c3n2)n1 | -4.81 |

Data request: Requested read-out: cytotoxicity at 10 µM. Entry: O=C(Cn1nc2c(cc1=O)CSCC2)N[C@@H](Cc1ccccc1)C(=O)O
Data returned: -3.14

###

# EXPERIMENTAL_DETAILS: Toxicity liver stage against HepG2, at 10uM
# Assay type: cell-based
# Design: test concentration 10 uM, cell line HepG2-A16-CD81EGFP
# TEST_PARAMETERS: human, HepG2-A16-CD81EGFP cells; read-out: INHIBITION
PROPERTY_LABEL: cytotoxicity at 10 µM (%)
# number only, unit % dropped from output

Data request: Requested read-out: cytotoxicity at 10 µM. Entry: COc1ccccc1CC(=O)NCc1c(C)nc2cc(=O)[nH]n2c1C
Data returned: -6.8

Data request: Requested read-out: cytotoxicity at 10 µM. Entry: O=C(c1ccc2ccccc2n1)N1CCC2(CCN2c2ncccn2)C1 (centres undefined)
Data returned: -114

Data request: Requested read-out: cytotoxicity at 10 µM. Entry: O=C(NCc1ccco1)N1CCC(n2cc(-c3ccccn3)nn2)CC1
Data returned: 16.9

Data request: Requested read-out: cytotoxicity at 10 µM. Entry: Cn1cc(NS(=O)(=O)c2ccc(OC(F)(F)F)cc2)ccc1=O
Data returned: 33.4

Data request: Requested read-out: cytotoxicity at 10 µM. Entry: CS(=O)(=O)N1CCO[C@@H]2CN(C(=O)C3CC(F)(F)C3)C[C@@H]2C1
Data returned: 6.19

###

# cytotoxicity at 10 µM listing for each entry below
# EXPERIMENTAL_DETAILS: Toxicity liver stage against HepG2, at 10uM
# Type: cell-based
# Parameters: test concentration 10 uM, cell line HepG2-A16-CD81EGFP
# TEST_PARAMETERS: human, HepG2-A16-CD81EGFP cells; read-out: INHIBITION
# number only, unit % dropped from output

Data request: Requested read-out: cytotoxicity at 10 µM. Entry: CCc1noc(CN(C)C(=O)C2COc3ccccc3C2)n1 (stereo not drawn)
Data returned: 1.3

Data request: Requested read-out: cytotoxicity at 10 µM. Entry: OC1(CNCc2cnc(N3CCOCC3)nc2)CCCCC1
Data returned: -2.41

Data request: Requested read-out: cytotoxicity at 10 µM. Entry: CC(SCCS(C)(=O)=O)c1nc(Cc2ccc(F)cc2)no1 (stereo not drawn)
Data returned: 4.6

Data request: Requested read-out: cytotoxicity at 10 µM. Entry: CN(C)C(C(=O)N1CCC(N2CCSCC2)CC1)c1ccccc1F (stereo not drawn)
Data returned: 9.22

Data request: Requested read-out: cytotoxicity at 10 µM. Entry: CCOc1ncccc1NC(=O)NC1CCN(C(=O)C2CC2)CC1
Data returned: -13.6

###

# cytotoxicity at 10 µM listing for each entry below
# EXPERIMENTAL_DETAILS: Toxicity liver stage against HepG2, at 10uM
# Type: cell-based
# Design: test concentration 10 uM, cell line HepG2-A16-CD81EGFP
# TEST_PARAMETERS: human, HepG2-A16-CD81EGFP cells; read-out: INHIBITION

Example compounds with recorded cytotoxicity at 10 µM:
| COMPOUND | RESULT |
| --- | --- |
| Cc1cc(N[C@H](CO)COCc2ccccc2)n2nc(C)cc2n1 | 0.324% |
| CC(C)c1nccc(CN(C)Cc2cccc(-n3cccn3)c2)n1 | -2.44% |
| CCn1cc(NC(=O)NCC(O)COc2cccc(F)c2)cn1 (configuration not stated) | -2.86% |
| c1csc(CN2CCCn3cnc(COCC4CC4)c3C2)n1 | 9.7% |
| Cn1ccc(C(=O)NCCOc2ccc(C(C)(C)C)cc2)cc1=O | 9.71% |

Data request: Requested read-out: cytotoxicity at 10 µM. Entry: CN(C)c1nc2n(c(=O)n1)CCN2C(=O)Nc1ccc(Cl)cc1
Data returned: 6.36%

Data request: Requested read-out: cytotoxicity at 10 µM. Entry: O=C(C[C@@H]1COC[C@H]2CN(CC3CCOCC3)C[C@@H]12)N1CCCCO1
Data returned: 7.49%

Data request: Requested read-out: cytotoxicity at 10 µM. Entry: CCCOC1CCCN(C(=O)c2ccnnc2)C1 (configuration not stated)
Data returned: -20.6%

Data request: Requested read-out: cytotoxicity at 10 µM. Entry: Cc1nn(C)c(N(C)C)c1CNCC(O)c1ccccc1F (configuration not stated)
Data returned: -7.9%

Data request: Requested read-out: cytotoxicity at 10 µM. Entry: c1cc(-c2c[nH]c([C@@H]3COCCN3Cc3csnn3)n2)ccn1
Data returned: 3.07%

Data request: Requested read-out: cytotoxicity at 10 µM. Entry: COCCn1ccc2c(C(=O)Nc3nc4c(s3)CCC4)cccc21
Data returned: 1.82%

Data request: Requested read-out: cytotoxicity at 10 µM. Entry: COCc1noc(Cn2c(=O)[nH]c3ccccc32)n1
Data returned: 4.84%

###

# EXPERIMENTAL_DETAILS: Toxicity liver stage against HepG2, at 10uM
# Type: cell-based
# Design: test concentration 10 uM, cell line HepG2-A16-CD81EGFP
# TEST_PARAMETERS: human, HepG2-A16-CD81EGFP cells; read-out: INHIBITION
PROPERTY_LABEL: cytotoxicity at 10 µM (%)
# number only, unit % dropped from output

Example molecules with recorded cytotoxicity at 10 µM:
| MOLECULE | cytotoxicity at 10 µM [%] |
| --- | --- |
| CN1CCN(C(=O)CC2CCN(CCc3ccccn3)CC2)CC1 | -2.89 |
| CCN(Cc1ccncc1)C(=O)c1cn(CCC2CCCCC2)nn1 | 10.5 |
| CCc1cnc(N)nc1NCCCN1CCCCC1CO (configuration not stated) | -0.0414 |
| CCNc1nnc(SCC(=O)N2CCN(Cc3ccc(Cl)s3)CC2)s1 | 15.2 |
| CN(C)C(=O)C1CN(Cc2c[nH]cn2)CCN(C2CCOCC2)C1 (configuration not stated) | -5.97 |
| O=c1n(Cc2ccc(C(F)(F)F)cc2)nc2ncccn12 | -4.06 |

Data request: Requested read-out: cytotoxicity at 10 µM. Entry: CN(C)c1ncc(I)c(C2CCCN2C)n1 (configuration not stated)
Data returned: 3.7

Data request: Requested read-out: cytotoxicity at 10 µM. Entry: CCN(CC)CCNCc1cc(O)c2cc(C)ccc2n1
Data returned: 0.749

Data request: Requested read-out: cytotoxicity at 10 µM. Entry: CNC(=O)N1CCC2(CC1)c1ncc(-c3cccc(F)c3)n1CCN2C
Data returned: 7.97

###

# EXPERIMENTAL_DETAILS: Toxicity liver stage against HepG2, at 10uM
# Assay type: cell-based
# Design: test concentration 10 uM, cell line HepG2-A16-CD81EGFP
# TEST_PARAMETERS: human, HepG2-A16-CD81EGFP cells; read-out: INHIBITION
# cytotoxicity at 10 µM listing for each entry below
I'd appreciate it if you wrote the number followed by its unit.

| MOLECULE | PROPERTY_LABEL | RESULT |
| --- | --- | --- |
| CN(C)Cc1cncc2c1CCN(Cc1ccoc1)C2 | cytotoxicity at 10 µM | -103% |
| CCc1[nH]ncc1C(=O)N1CCCN(Cc2nccn2C(C)C)CC1 | cytotoxicity at 10 µM | -8.92% |
| CC(=O)c1cc(CC(=O)N2CCN(S(=O)(=O)c3ccccc3)CC2)cs1 | cytotoxicity at 10 µM | -0.943% |
| Cn1ccc(C(=O)NC2CCC23CCN(Cc2cnn(C)c2)CC3)c1 (stereo unspecified) | cytotoxicity at 10 µM | -146% |
| O=C(NCc1nnc2n1CCCC2)N(Cc1ccccc1F)C1CC1 | cytotoxicity at 10 µM | -9.29% |

Data request: Requested read-out: cytotoxicity at 10 µM. Entry: CCCc1nc(CN2CCCC2Cn2cncn2)no1 (stereo unspecified)
Data returned: -2%

Data request: Requested read-out: cytotoxicity at 10 µM. Entry: O=C(c1cccc(Cl)c1)N1CC[C@H]2[C@H]1CCN2CC1CC1
Data returned: -75%

Data request: Requested read-out: cytotoxicity at 10 µM. Entry: Cc1cc(C2CCCN2C(=O)CN2C(=O)OC(C)(C)C2=O)on1 (stereo unspecified)
Data returned: -14.1%

Data request: Requested read-out: cytotoxicity at 10 µM. Entry: COc1cccc(CN(C)c2ncc(C(N)=O)cc2Cl)c1
Data returned: 2.53%

Data request: Requested read-out: cytotoxicity at 10 µM. Entry: CN(CC1CC1)c1ccc2ccc(C(=O)NC3CCCCC3)cn12
Data returned: -0.567%

Data request: Requested read-out: cytotoxicity at 10 µM. Entry: CS(=O)(=O)NCCC(=O)N1Cc2cnc(-c3ccccc3)nc2C1
Data returned: -4.65%
